# System: 885512-296-R-J2-PDC complex spheroid viability;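 note: spheroids exposed to the compounds for one week; percent of tumor spheroid viability relative to DMSO vehicle control wells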
# TEST_DETAILS: Anticancer human tumor 885512-296-R-J2-PDC patient-derived breast carcinoma cell line growth inhibition [GQUAD]
# TEST_SETTINGS: second compound 10 µM; first compound 1 µM; hits give low values
In this section, each of the compounds is paired with its reported viability, T/C.

# COMPOUND, viability, T/C (%)
records = [
    ("O=C(NO)c1cnc(N2CCN(S(=O)(=O)c3ccc4ccccc4c3)CC2)nc1 + CN(C)c1ccc(Nc2c3ccc(NC(=O)CCN4CCCC4)cc3nc3cc(NC(=O)CCN4CCCC4)ccc23)cc1", 3.09),
    ("COc1ncnc(C2CC2)c1-c1ncc2cnn(Cc3ccc(-c4nc(C(F)(F)F)cn4C(C)C)cc3)c2n1 + Cc1[nH]c2ccc(F)cc2c1-c1nc2c3cccnc3c3ncccc3c2[nH]1", 2.23),
    ("COc1ccc([C@@H](O)c2cc(-c3ncnc4cc(N5CCOCC5)ccc34)c(F)cc2Cl)nn1 + Cc1[nH]c2ccc(F)cc2c1-c1nc2c3cccnc3c3ncccc3c2[nH]1", 1.42),
]

Where these numbers come from: PubChem BioAssay AID2060490
